Target: Eukaryotic translation initiation factor 4E (Mus musculus, UniProt P63073)
Sequence (P63073 whole entry): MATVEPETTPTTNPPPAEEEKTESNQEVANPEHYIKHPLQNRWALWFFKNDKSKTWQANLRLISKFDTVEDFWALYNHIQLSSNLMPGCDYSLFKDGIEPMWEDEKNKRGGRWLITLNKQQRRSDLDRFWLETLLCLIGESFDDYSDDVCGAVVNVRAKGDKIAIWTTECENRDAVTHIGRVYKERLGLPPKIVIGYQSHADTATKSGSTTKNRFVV
Assay: eIF4E–eIF4G protein interaction inhibitors, dose response, biochemical, TR-FRET (AID 855);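 also: potency for disrupting eIF4E binding to eIF4GI seen as loss of FRET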
Type: functional
Counter-ions that a name gives are not always drawn. The source made the active and inactive calls. No rule for the calls is given here.
measuredAttribute: IC50

// solved cases for IC50 follow
molecule: CN1CCc2cccc3c2[C@H]1Cc1ccc(O)c(O)c1-3 [APOMORPHINE HYDROCHLORIDE]
testValue: > 64 µM (inactive)

molecule: COC(=O)n1c(=S)oc2cc(Cl)ccc21
testValue: > 64 µM (inactive)

Value of IC50 reported for the molecule `COc1ccc(/C=N/n2cnc3c4cc(Br)ccc4nc-3c2O)cc1CN1CCOCC1` is > 64 µM (inactive)

Per the records, this molecule ( `Cc1c(/N=N/c2c(-c3ccc([N+](=O)[O-])cc3)[nH]n(C(N)=S)c2=O)cccc1[N+](=O)[O-]` ) has IC50 equal to 50 µM (inactive)
